# targetOrTestSystem: human Nav1.2 isoform (hNav1.2) (Homo sapiens)
# Sequence (Q99250 whole entry, canonical isoform): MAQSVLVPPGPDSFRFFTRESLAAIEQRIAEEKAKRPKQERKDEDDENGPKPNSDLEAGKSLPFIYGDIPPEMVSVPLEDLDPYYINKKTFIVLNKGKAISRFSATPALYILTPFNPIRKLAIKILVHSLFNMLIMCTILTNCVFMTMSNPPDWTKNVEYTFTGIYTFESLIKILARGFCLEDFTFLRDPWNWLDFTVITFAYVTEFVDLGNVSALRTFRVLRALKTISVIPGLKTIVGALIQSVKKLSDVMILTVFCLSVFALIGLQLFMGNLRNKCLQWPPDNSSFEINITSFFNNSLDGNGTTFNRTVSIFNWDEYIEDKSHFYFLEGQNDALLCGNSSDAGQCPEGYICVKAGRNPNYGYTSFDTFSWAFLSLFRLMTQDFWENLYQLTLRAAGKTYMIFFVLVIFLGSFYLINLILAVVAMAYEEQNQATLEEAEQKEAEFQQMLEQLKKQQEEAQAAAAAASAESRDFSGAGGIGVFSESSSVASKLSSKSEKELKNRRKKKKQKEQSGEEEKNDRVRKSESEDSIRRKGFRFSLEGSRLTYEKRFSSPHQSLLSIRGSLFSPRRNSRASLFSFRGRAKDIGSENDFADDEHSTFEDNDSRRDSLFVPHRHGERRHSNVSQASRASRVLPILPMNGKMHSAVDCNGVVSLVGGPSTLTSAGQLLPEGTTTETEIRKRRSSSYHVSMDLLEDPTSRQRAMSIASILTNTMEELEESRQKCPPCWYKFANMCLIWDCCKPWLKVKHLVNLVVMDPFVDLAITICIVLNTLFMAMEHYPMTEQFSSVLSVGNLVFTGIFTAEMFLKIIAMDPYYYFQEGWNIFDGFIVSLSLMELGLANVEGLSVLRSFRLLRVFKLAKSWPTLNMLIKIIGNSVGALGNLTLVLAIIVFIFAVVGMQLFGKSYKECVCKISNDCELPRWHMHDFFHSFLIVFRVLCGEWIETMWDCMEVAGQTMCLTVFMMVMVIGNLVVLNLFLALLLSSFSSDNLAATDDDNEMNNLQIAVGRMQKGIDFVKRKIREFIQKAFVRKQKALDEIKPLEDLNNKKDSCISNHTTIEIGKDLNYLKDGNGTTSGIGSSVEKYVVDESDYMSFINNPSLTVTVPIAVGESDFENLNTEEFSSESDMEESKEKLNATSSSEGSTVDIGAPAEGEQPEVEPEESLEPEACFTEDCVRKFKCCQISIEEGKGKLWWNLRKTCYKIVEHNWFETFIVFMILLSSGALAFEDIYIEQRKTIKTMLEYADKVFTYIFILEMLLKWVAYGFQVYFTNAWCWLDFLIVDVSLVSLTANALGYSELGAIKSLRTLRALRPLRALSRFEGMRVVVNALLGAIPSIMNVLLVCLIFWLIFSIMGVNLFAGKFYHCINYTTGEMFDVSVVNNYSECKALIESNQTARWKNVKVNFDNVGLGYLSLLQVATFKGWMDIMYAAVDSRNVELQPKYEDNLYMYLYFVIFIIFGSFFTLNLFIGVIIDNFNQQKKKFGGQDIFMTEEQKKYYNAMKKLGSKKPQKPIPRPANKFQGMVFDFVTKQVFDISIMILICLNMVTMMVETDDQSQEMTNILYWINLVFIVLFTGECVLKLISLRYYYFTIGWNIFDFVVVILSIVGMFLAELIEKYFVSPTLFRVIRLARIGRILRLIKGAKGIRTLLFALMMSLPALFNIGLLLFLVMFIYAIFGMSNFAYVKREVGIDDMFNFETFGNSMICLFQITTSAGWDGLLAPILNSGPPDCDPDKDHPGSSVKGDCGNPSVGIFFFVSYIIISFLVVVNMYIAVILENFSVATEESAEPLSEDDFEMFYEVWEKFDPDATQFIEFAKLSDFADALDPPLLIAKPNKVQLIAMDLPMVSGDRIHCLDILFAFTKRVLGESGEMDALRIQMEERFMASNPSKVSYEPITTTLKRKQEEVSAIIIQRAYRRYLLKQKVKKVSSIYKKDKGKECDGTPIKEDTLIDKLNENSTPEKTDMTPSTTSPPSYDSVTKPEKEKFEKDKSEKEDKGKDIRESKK
# assayText: automated patch clamp, CHO cells transfected with hNav1.[…]
measuredProperty: IC50 (µM)
Numbers only, in µM.

{"molecularString": "CCCCCN=c1ccn(Cc2ccccc2)c2cc(I)ccc12", "measurementUnit": "µM", "numericValue": 1.5}

Alright, here's another molecule for you.
## Task // fetch IC50; item: `CCCCCN=c1ccn(Cc2ccccc2)c2cc(Cl)ccc12` ; system: human Nav1.2 isoform (hNav1.2) (Homo sapiens)
## Result 2.2
